Test system: sunflower (common oilseed sunflower, Helianthus annuus)
Test protocol: Test B pre-/postemergence plant response
Assay type: in vivo
Details: Preemergence, 62 g ai/ha; scale 0 to 100, 0 no effect, 100 complete control
Metric name: Plant response rating, Sunflower

Cc1ccc(C)c(-n2c(-c3ccccc3)ncc(C(=O)C3=C(O)CCCC3=O)c2=O)c1 ... 85

Need Plant response rating, Sunflower, item CC(C)Cc1ncc(C(=O)C2=C(O)CCCC2=O)c(=O)n1-c1ccccc1
60

I would be grateful if you could share the reported Plant response rating, Sunflower for O=C1CCCC(O)=C1C(=O)c1cnc(-c2cccc(Cl)c2)n(-c2ccccc2)c1=O .
70

Any idea what its Plant response rating, Sunflower is? The compound is Cc1cccc(-n2c(-c3ccccc3)ncc(C(=O)C3=C(O)CCCC3=O)c2=O)c1C
75

Bench note: what Plant response rating, Sunflower did COCCCn1c(-c2ccccc2)ncc(C(=O)C2=C(O)CCCC2=O)c1=O show?
75
